Exercise: for every item that follows, state its recorded log10 of Antiviral activity in Vero cells, IC50 (plaque reduction, DENV2).
TARGET OF ASSAY: LRP1 receptor (Low Density Lipoprotein Receptor-Related Protein) on Vero cells
ASSAY INFO: cell-based or functional assay
Log scale reminder: Antiviral activity in Vero cells, IC50 (plaque reduction, DENV2) in µM, then log10 taken.

Example entries begin here.
CIEVNVTINGKKYNWFICKKK (modifications not checked) [beta hairpin peptide PHB8]	1.18
CVYWTRPKWKVNWCKKK (modifications not checked) [beta hairpin peptide PHB2]	1.08
CIEVNWTEPDKKVNWFICKKK (modifications not checked) [beta hairpin peptide PHB3]	1.23
CSNIVIGIGDKALKINWCKKK (modifications not checked) [peptide HDIII3CL2]	1.30
FWNWKWEPNKWTWNVEGGKKK (modifications not checked) [beta hairpin peptide PHB6]	1.52

Quick request: log10 of Antiviral activity in Vero cells, IC50 (plaque reduction, DENV2) for each listed item, please.
1. FWNWKWEKNKWTWNVEGGKKK (modifications not checked) [beta hairpin peptide PHB5]
2. CIEVYVTINGKKYNWFICKKK (modifications not checked) [beta hairpin peptide PHB9]
3. CIEVYWTRPKWKVNWFICKKK (modifications not checked) [beta hairpin peptide PHB4]

RESULT:
1: 1.23; 2: 0.85; 3: -2.52

For every listed record, write down its log10 of Antiviral activity in Vero cells, IC50 (plaque reduction, DENV2).
1. CVNWTEPDKKVNWCKKK (modifications not checked) [beta hairpin peptide PHB1]
2. CVNVTINGKKYNWCKKK (modifications not checked) [beta hairpin peptide PHB7]

RESULT:
1: 1.88; 2: 1.90
